Exercise: for every item that follows, state its recorded pIC50.
Biological target: DPP-IV (Homo sapiens, UniProt P27487)
Construct: an extract of human colon carcinoma cell line Caco-2 is used as the DPP-IV source; endogenous in cells
Sequence (P27487 whole entry): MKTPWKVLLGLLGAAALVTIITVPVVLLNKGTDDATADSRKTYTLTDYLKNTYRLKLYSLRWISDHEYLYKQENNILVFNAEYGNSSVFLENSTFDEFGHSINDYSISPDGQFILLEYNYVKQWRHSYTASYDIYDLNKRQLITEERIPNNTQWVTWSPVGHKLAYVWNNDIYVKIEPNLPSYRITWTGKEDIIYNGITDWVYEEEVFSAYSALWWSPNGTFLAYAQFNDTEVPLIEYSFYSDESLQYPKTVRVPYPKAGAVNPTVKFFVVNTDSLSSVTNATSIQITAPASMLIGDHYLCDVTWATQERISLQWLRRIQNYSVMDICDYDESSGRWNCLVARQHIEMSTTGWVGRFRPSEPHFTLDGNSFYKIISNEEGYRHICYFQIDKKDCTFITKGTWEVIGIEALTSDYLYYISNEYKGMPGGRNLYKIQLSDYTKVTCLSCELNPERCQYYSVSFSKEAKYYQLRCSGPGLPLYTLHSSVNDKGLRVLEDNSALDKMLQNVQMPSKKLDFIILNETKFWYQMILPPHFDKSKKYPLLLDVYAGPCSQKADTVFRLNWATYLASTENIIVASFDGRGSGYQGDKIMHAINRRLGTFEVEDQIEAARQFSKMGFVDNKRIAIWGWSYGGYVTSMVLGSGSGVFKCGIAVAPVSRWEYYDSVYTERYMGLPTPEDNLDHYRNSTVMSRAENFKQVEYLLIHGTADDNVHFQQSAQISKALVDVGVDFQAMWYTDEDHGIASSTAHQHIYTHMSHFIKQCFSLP
Assay: DPP-IV assay with Caco-2 cell extract as DPP-IV source
Settings: extract of human colon carcinoma cell line Caco-2; AFC substrate 100 μM; 60 minutes at ambient temperature; read-out: DPP-IV inhibition IC50
Answers are plain numbers, as −log10 of the molar value.

| compound | pIC50 |
| --- | --- |
| C/C=C/Cn1c(N2CCC[C@H](N)C2)nc2c1c(=O)n(CC(=O)c1ccccc1NC(=O)C1CC1)c(=O)n2C | 8.52 |
| CC(C)=CCn1c(N2CCCC(N)C2)nc2c1c(=O)n(CC(=O)c1ccccc1NC(=O)C1CC1)c(=O)n2C (stereo not shown) | 7.96 |
| CC(C)=CCn1c(N2CCCC(N)C2)nc2c1c(=O)n(CC(=O)c1ccccc1NC=O)c(=O)n2C (stereo not shown) | 8.30 |

Now consider the entry below.
Need pIC50, item `CC#CCn1c(N2CCC[C@@H](N)C2)nc2c1c(=O)n(CC(=O)c1ccccc1NC(=O)C1CC1)c(=O)n2C` 8.52

====

Exercise: for every item that follows, state its recorded IC50.
Target: DPP-IV (Homo sapiens, UniProt P27487)
Construct: an extract of human colon carcinoma cell line Caco-2 is used as the DPP-IV source; endogenous in cells
Assay: DPP-IV assay with Caco-2 cell extract as DPP-IV source
Conditions: extract of human colon carcinoma cell line Caco-2; AFC substrate 100 μM; 60 minutes at ambient temperature; read-out: DPP-IV inhibition IC50
One number for each entry, in nM.

Provide each entry's IC50 from the list below.
1. CC#CCn1c(N2CCC[C@H](N)C2)nc2c1c(=O)n(CC(=O)c1ccccc1NC(=O)C1CC1)c(=O)n2C
2. CC#CCn1c(N2CCCC(N)C2)nc2c1c(=O)n(CC(=O)c1ccccc1NC=O)c(=O)n2C (stereo not shown)
3. C/C=C/Cn1c(N2CCCC(N)C2)nc2c1c(=O)n(CC(=O)c1ccccc1NC(=O)c1ccccn1)c(=O)n2C (stereo not shown)
4. C/C=C/Cn1c(N2CCC[C@@H](N)C2)nc2c1c(=O)n(CC(=O)c1ccccc1NC(=O)C1CC1)c(=O)n2C

1: 5; 2: 3; 3: 8; 4: 4
